Tested on: production of prostaglandin E2 by human fibroblasts
Assay: Inhibition of Production of Prostaglandin E2 in Human Fibroblasts (IL-1 stimulation)
Format: cell-based
Details: Fibroblast; human fibroblasts under stimulation with IL-1
pIC50: −log10 of the molar value.
REPORTED_PROPERTY: pIC50

{"columns": ["COMPOUND", "REPORTED_PROPERTY", "EXPERIMENTAL_VALUE"],
 "data": [
  ["CN(C[C@@H]1C[C@@H](OCc2ccccc2-c2ccccc2)CN1C(=O)c1ccccc1C(=O)c1ccc(F)cc1)C(=O)c1ccc(/C=C2\\SC(=O)NC2=O)cc1", "pIC50", 6.01],
  ["O=C1NC(=O)/C(=C/c2ccc(C(=O)NC[C@H]3C[C@H](SCc4ccccc4-c4ccccc4)CN3C(=O)c3ccccc3C(=O)c3ccc(F)cc3)cc2)S1", "pIC50", 6.02],
  ["O=C1NC(=S)S/C1=C\\c1ccc(COC[C@@H]2C[C@@H](OCc3ccccc3-c3ccccc3)CN2C(=O)c2ccccc2C(=O)c2ccc(F)cc2)cc1", "pIC50", 5.66],
  ["O=C1NC(=O)/C(=C/c2ccc(C(=O)NC[C@@H]3C[C@@H](OCc4ccccc4-c4ccccc4)CN3C(=O)C3CCCCC3C(=O)c3ccccc3)cc2)S1 (some centres unmarked)", "pIC50", 6.33],
  ["CC(C)N(Cc1ccccc1-c1ccccc1)[C@@H]1C[C@@H](CNC(=O)c2ccc(/C=C3\\SC(=O)NC3=O)cc2)N(C(=O)c2ccccc2C(=O)c2ccc(F)cc2)C1", "pIC50", 5.44]
]}
